Where do the numbers come from? From ChEMBL document CHEMBL4840359.

Biological target: Neuropeptide Y receptor type 4 (Homo sapiens, UniProt P50391)
Sequence (P50391 whole entry): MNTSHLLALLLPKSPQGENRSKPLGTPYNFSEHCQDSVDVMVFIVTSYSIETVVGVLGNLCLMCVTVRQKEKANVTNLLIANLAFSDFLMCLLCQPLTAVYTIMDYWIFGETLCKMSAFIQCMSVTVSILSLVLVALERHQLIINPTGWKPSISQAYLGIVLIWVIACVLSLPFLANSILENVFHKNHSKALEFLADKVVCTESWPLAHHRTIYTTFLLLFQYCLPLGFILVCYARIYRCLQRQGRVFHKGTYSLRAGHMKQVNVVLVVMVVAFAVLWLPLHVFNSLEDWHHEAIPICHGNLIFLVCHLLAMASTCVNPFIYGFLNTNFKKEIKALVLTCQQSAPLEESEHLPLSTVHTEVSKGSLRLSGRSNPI
Experiment: Intrinsic activity at human neuropeptide Y Y4 receptor expressed in HEK293T-ARRB2 cells assessed as stimulation of beta-arrestin 2 recruitment by multimode plate reader relative to hPP
Type: functional, cell-based
Active and inactive are the calls of the source. The rule behind the calls is not given here. Starred links: 1 amine or outer side, 2 acyl side, 3 side chain; linkers in the order of their positions; H or OH if unused. Residues, ends and D or L forms follow the SMILES beside them. Groups on a side chain read outwards from the residue. *: point of attachment. Suc = O=C(CCC(=O)[*:2])[*:1]; NH(CH2)4NH2 = NCCCCN*; CO = O=C([*:1])[*:2]
measurement.type: Intrinsic activity

compound: CC(C)C[C@H](NC(=O)[C@H](CCCNC(=N)NC(=O)NCCCCN)NC(=O)[C@H](CCCNC(=N)N)NC(=O)CCC(=O)O)C(=O)N[C@@H](CCCNC(=N)N)C(=O)N[C@@H](Cc1ccc(O)cc1)C(N)=O (Suc-RR([CO-NH(CH2)4NH2])LRY-NH2)
system.under.test: Neuropeptide Y receptor type 4 (Homo sapiens, UniProt P50391)
Intrinsic activity: 60%
--
compound: N=C(N)NCCC[C@@H]1NC(=O)CCC(=O)NCCCCNC(=O)NC(=N)NCCC[C@@H](C(=O)N[C@@H](Cc2c[nH]c3ccccc23)C(=O)N[C@@H](CCCNC(=N)N)C(=O)N[C@@H](Cc2ccc(O)cc2)C(N)=O)NC(=O)[C@H](Cc2ccc(O)cc2)NC1=O (HELM PEPTIDE1{R.Y.[N=C(NCCC[C@H](N[*:1])C(=O)[*:2])N[*:3]].W.R.Y.[am]}|CHEM1{[O=C(CCC(=O)[*:1])NCCCCNC(=O)[*:2]]}$PEPTIDE1,CHEM1,1:R1-1:R1|PEPTIDE1,CHEM1,3:R3-1:R2$$$V2.0)
system.under.test: Neuropeptide Y receptor type 4 (Homo sapiens, UniProt P50391)
Intrinsic activity: 83%
--
compound: CC(C)C[C@H](NC(=O)[C@@H]1CCCNC(=N)NC(=O)NCCCCNC(=O)CCC(=O)N[C@@H](CCCNC(=N)N)C(=O)N[C@@H](Cc2c[nH]c3ccccc23)C(=O)N1)C(=O)N[C@@H](CCCNC(=N)N)C(=O)N[C@@H](Cc1ccc(O)cc1)C(N)=O
system.under.test: Neuropeptide Y receptor type 4 (Homo sapiens, UniProt P50391)
Intrinsic activity: 80%
--
compound: CC(C)C[C@H](NC(=O)[C@H](CCCNC(=N)N)NC(=O)[C@H](Cc1ccc(O)cc1)NC(=O)[C@H](CCCNC(=N)N)NC(=O)CCC(=O)O)C(=O)N[C@@H](CCCNC(=N)NC(=O)NCCCN)C(=O)N[C@@H](Cc1ccc(O)cc1)C(N)=O
system.under.test: Neuropeptide Y receptor type 4 (Homo sapiens, UniProt P50391)
Intrinsic activity: inactive
--
compound: CC(C)C[C@H](NC(=O)[C@H](CCCNC(=N)NC(=O)NCCCCN)NC(=O)[C@H](Cc1ccc(O)cc1)NC(=O)[C@H](CCCNC(=N)N)NC(=O)CCC(=O)O)C(=O)N[C@@H](CCCNC(=N)N)C(=O)N[C@@H](Cc1ccc(O)cc1)C(N)=O
system.under.test: Neuropeptide Y receptor type 4 (Homo sapiens, UniProt P50391)
Intrinsic activity: 83%
--
compound: CC(C)C[C@H](NC(=O)[C@H](CCCNC(=N)NC(=O)NCCCN)NC(=O)[C@H](Cc1ccc(O)cc1)NC(=O)[C@H](CCCNC(=N)N)NC(=O)CCC(=O)O)C(=O)N[C@@H](CCCNC(=N)N)C(=O)N[C@@H](Cc1ccc(O)cc1)C(N)=O
system.under.test: Neuropeptide Y receptor type 4 (Homo sapiens, UniProt P50391)
Intrinsic activity: 71%
--
compound: N=C(N)NCCC[C@H](NC(=O)CCC(=O)O)C(=O)N[C@@H](Cc1ccc(O)cc1)C(=O)N[C@@H](CCCNC(=N)NC(=O)NCCCCN)C(=O)N[C@@H](Cc1c[nH]c2ccccc12)C(=O)N[C@@H](CCCNC(=N)N)C(=O)N[C@@H](Cc1ccc(O)cc1)C(N)=O (single isomer, unassigned)
system.under.test: Neuropeptide Y receptor type 4 (Homo sapiens, UniProt P50391)
Intrinsic activity: inactive
--
compound: CC(C)C[C@H](NC(=O)[C@@H]1CCCNC(=N)NC(=O)NCCCCNC(=O)CCC(=O)N[C@@H](CCCCN)C(=O)N[C@@H](Cc2ccc(O)cc2)C(=O)N1)C(=O)N[C@@H](CCCNC(=N)N)C(=O)N[C@@H](Cc1ccc(O)cc1)C(N)=O (HELM PEPTIDE1{K.Y.[N=C(NCCC[C@H](N[*:1])C(=O)[*:2])N[*:3]].L.R.Y.[am]}|CHEM1{[O=C(CCC(=O)[*:1])NCCCCNC(=O)[*:2]]}$PEPTIDE1,CHEM1,1:R1-1:R1|PEPTIDE1,CHEM1,3:R3-1:R2$$$V2.0)
system.under.test: Neuropeptide Y receptor type 4 (Homo sapiens, UniProt P50391)
Intrinsic activity: 67%

Could you now consider this next compound?
Problem: # get_value(readout='Intrinsic activity', item= CC(C)C[C@H](NC(=O)[C@@H]1CCCNC(=N)NC(=O)NCCCNC(=O)CCC(=O)N[C@@H](CCCNC(=N)N)C(=O)N[C@@H](Cc2ccc(O)cc2)C(=O)N1)C(=O)N[C@@H](CCCNC(=N)N)C(=O)N[C@@H](Cc1ccc(O)cc1)C(N)=O )
Solution: 87%
